- Read-out: CD40, CD40 (gene 958)
- protocolText: BSK_SAg_CD40: BioMAP Diversity Plus: SAg Assay for CD40 Biomarker Activity (AID 2283088)
- setupConditions: primary human HUVEC with PBMC; actives raise or lower the signal
Calls of active or inactive are those of the source. Rule for the calls: active = hit-call score of the fitted dose curve at least 0.9, where 1 is the maximum; inactive = score below 0.9.
Outcomes: 1 = active, 0 = inactive

In [3]: df
Out[3]:
                                    molecule  classlabel
 0                 Nc1ccc([N+](=O)[O-])cc1Cl           0
 1          c1ccc(OP(Oc2ccccc2)Oc2ccccc2)cc1           0
 2     C=CC(=O)OCC(CC)(COC(=O)C=C)COC(=O)C=C           1
 3  FC(F)(F)C(F)(C(F)(F)F)C(F)(F)C(F)(F)CC1CO1 (centres undefined)           0
 4                      O=[N+]([O-])c1ccccc1           0
 5                          CC(Cl)(Cl)C(=O)O           0
 6           CCCCOCCOP(=O)(OCCOCCCC)OCCOCCCC           0
 7                              CN(C)C(=O)Cl           0
 8                CCNc1nc(Cl)nc(NC(C)(C)C)n1           1
 9  CCOP(=S)(Oc1ccc([N+](=O)[O-])cc1)c1ccccc1 (centres undefined)           1
10               OCC1CO1 (centres undefined)           0
11                             O=C(O)C(Cl)Cl           0
12  CCCCC(CC)COC(=O)c1c(Br)c(Br)c(Br)c(Br)c1C(=O)OCC(CC)CCCC (centres undefined)           0
13                              COP(N)(=S)OC           0

====

- tgt: Paired box protein Pax-6 (Homo sapiens)
- protocolText: ATG_Pax6_CIS: Attagene CIS-FACTORIAL HepG2 Assay for human Paired Box 6 (PAX6) (AID 2282956)
- setupConditions: HepG2 CIS-FACTORIAL PAX6 reporter transcription, RNA readout; actives raise or lower the signal
The source made the active and inactive calls. The calls were made as follows: active = hit-call score of the fitted dose curve at least 0.9, where 1 is the maximum; inactive = score below 0.9.
Outcomes: true for active, false for inactive

In [3]: df
Out[3]:
                                    compound  classlabel
 0                        CCCCN(CC)C(=O)SCCC       false
 1          c1ccc(OP(Oc2ccccc2)Oc2ccccc2)cc1       false
 2                              CN(C)C(=O)Cl       false
 3                                  COC(N)=O       false
 4  O=C(O)C1C(C(=O)O)C2(Cl)C(Cl)=C(Cl)C1(Cl)C2(Cl)Cl (stereo not given)       false
 5           CCOP(=S)(OCC)SCn1nnc2ccccc2c1=O       false
 6                             CSC(C)(C)C=NO       false
 7                 CC(=O)c1ccc(-c2ccccc2)cc1       false
 8  CCCCN(CCCC)SN(C)C(=O)Oc1cccc2c1OC(C)(C)C2       false
 9  COC(=O)C(F)(F)C(F)(F)OC(F)(C(F)(F)F)C(F)(F)OC(F)=C(F)F (stereo not given)       false
10  Cc1c([N+](=O)[O-])cc2c(c1[N+](=O)[O-])C(C)(C)CC2(C)C       false
11                                O=NN1CCCC1       false
12               CC(O)C#N (stereo not given)       false
13                     c1ccc2c(c1)sc1ccccc12       false
14                   Nc1ccc(Sc2ccc(N)cc2)cc1       false
15                                  O=C(O)CF       false
16                        O=C(CBr)OCc1ccccc1       false
17           O=C(O)C=CC(F)(C(F)(F)F)C(F)(F)F       false
18  CCOP(=S)(NC(C)C)Oc1ccccc1C(=O)OC(C)C (stereo not given)       false
19                       CC(C)(C)c1ccc(O)cc1        true
20                   O=c1[nH]c2ccccc2c(=O)o1       false
21                      FC(F)(F)c1ccc(Cl)cc1       false
22  CCC1(c2ccccc2)C(=O)N=C(O)NC1=O (stereo not given)       false
23  O=P1(N(CCCl)CCCl)NCCCO1 (stereo not given)       false
24                         CCOP(=O)(O)C(N)=O       false
25                CNC(=O)Oc1ccc(N(C)C)c(C)c1       false
26                        Cc1ccc(C(=O)Cl)cc1       false
27                                c1nc[nH]n1       false
28  OCC(F)(F)OC(F)(F)C(F)(F)OC(F)(F)C(F)(F)OC(F)(F)CO       false
29                N#Cc1cc([N+](=O)[O-])ccc1N       false
